- Test target: CK1α (Homo sapiens, UniProt P48729+Q96SW2)
- Construct: CSNK1A1-HiBit KI HEK293(LgBit) Cells; host or cells: HEK293(LgBit) knock-in cells
- Sequence (P48729 whole entry): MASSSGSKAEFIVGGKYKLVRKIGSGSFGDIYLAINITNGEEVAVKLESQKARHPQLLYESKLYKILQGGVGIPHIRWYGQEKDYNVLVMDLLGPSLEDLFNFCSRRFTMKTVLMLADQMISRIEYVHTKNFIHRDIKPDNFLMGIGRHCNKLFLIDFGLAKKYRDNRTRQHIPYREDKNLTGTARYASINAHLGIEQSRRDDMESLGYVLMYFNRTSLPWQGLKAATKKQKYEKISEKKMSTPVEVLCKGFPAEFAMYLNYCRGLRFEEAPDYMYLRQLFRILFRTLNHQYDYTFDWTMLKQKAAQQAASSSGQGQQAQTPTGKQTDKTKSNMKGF
- Sequence (Q96SW2 whole entry): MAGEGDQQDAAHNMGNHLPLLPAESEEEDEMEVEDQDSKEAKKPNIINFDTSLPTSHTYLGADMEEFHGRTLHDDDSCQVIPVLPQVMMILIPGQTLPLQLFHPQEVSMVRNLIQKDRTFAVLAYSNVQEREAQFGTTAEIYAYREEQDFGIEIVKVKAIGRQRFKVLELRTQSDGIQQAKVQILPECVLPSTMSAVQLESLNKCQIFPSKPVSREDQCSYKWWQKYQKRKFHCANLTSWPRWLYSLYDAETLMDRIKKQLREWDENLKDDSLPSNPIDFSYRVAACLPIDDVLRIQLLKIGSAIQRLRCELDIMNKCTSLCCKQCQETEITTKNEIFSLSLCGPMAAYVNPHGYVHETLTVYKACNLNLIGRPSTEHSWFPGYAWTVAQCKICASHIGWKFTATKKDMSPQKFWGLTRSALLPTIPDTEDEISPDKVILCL
- Sequence (Q16531 whole entry partner): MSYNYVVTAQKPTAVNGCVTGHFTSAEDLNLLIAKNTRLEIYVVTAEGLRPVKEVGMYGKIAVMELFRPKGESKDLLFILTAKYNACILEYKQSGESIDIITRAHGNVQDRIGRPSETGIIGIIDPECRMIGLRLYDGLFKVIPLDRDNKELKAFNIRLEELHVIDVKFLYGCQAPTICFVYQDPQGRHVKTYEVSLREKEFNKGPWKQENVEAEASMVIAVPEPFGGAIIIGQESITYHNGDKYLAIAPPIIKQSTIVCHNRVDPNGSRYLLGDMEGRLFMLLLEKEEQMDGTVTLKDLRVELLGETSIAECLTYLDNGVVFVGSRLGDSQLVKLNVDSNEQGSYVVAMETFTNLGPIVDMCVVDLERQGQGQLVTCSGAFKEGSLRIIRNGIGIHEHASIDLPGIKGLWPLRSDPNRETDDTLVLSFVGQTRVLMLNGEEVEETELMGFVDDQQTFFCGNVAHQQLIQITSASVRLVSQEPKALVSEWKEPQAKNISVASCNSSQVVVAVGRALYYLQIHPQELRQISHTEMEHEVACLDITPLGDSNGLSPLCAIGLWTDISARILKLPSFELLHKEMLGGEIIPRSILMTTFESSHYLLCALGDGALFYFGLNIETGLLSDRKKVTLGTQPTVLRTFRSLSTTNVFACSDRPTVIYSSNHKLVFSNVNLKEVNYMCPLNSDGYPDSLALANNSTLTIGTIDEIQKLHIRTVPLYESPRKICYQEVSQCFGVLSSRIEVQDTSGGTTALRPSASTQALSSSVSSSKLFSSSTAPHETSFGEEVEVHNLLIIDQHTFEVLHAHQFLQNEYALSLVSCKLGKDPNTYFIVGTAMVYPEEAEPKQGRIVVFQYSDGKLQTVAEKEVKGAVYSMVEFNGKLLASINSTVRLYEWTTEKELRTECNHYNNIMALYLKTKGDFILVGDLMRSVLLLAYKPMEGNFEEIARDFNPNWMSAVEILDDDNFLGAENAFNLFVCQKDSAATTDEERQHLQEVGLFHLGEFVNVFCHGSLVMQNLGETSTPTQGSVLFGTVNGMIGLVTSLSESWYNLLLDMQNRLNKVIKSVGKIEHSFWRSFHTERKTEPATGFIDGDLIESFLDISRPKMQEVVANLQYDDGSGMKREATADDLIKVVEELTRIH
- Test summary: HiBiT degradation assay, CK1α, Procedure A
- Type: cell-based
- Details: six hours
Quantity measured: CK1α Ymin

As a guide, the following entries are already answered.
compound="Cn1cnc(-c2ccc3c(c2)CN(C2CCC(=O)NC2=O)C3=O)c1C1CCCCC1 (stereo not shown) [Example 594]" test_target="CK1α (Homo sapiens, UniProt P48729+Q96SW2)" result="C (C = 0-10% remaining)"
compound="Cn1cnc(-c2ccc3c(c2)CN(C2CCC(=O)NC2=O)C3=O)c1-c1ccc2ncsc2c1 (stereo not shown) [Example 502]" test_target="CK1α (Homo sapiens, UniProt P48729+Q96SW2)" result="C (C = 0-10% remaining)"
compound="CC(C)n1nc(-c2ccc3c(c2)CN(C2CCC(=O)NC2=O)C3=O)cc1-c1ccccc1 (stereo not shown) [Example 550]" test_target="CK1α (Homo sapiens, UniProt P48729+Q96SW2)" result="C (C = 0-10% remaining)"
compound="Cc1ccc(-c2nc(-c3ccc4c(c3)CN(C3CCC(=O)NC3=O)C4=O)cn2C)cc1Cl (stereo not shown) [Example 564]" test_target="CK1α (Homo sapiens, UniProt P48729+Q96SW2)" result="C (C = 0-10% remaining)"

Let's switch to this compound now.
Exercise: What value of CK1α Ymin has been recorded for this entry: Cn1ncc(-c2ccc3c(c2)CN(C2CCC(=O)NC2=O)C3=O)c1-c1cccs1 (stereo not shown) [Example 471]
Key: C (C = 0-10% remaining)
